src = ChEMBL document CHEMBL5257024

# System: NCI-H460
# EXPERIMENT: cells
# COND: Homo sapiens, NCI-H460, 48 h
# Description: Antiproliferative activity against human NCI-H460 cells assessed as inhibition of cell growth incubated for 48 hrs by propidium iodide staining based fluorometer assay
PROPERTY MEASURED: IC50 (µM)

Use these answered entries as a reference point.
| COMPOUND | IC50, µM |
| --- | --- |
| COc1ccc(/C=C2\CN(C)C/C(=C\c3ccc(OC)c(OC)c3Cl)C2=O)c(Cl)c1OC | 3.5 |
| COc1cc(/C=C2\CCC/C(=C\c3cc(OC)c(OC)c(OC)c3Br)C2=O)c(Br)c(OC)c1OC | 2.6 |
| COc1cc(/C=C2\CCc3ccc([N+](=O)[O-])cc3C2=O)c(Br)c(OC)c1OC | 1.3 |
| COc1cccc(/C=C2\CC(C(C)C)C/C(=C\c3cccc(OC)c3Cl)C2=O)c1Cl (centres undefined) | 13.9 |
| COc1ccc(/C=C2\CCc3ccc(F)cc3C2=O)c(Cl)c1OC | 10.6 |
| COc1cccc(/C=C2\CCC/C(=C\c3cccc(OC)c3Cl)C2=O)c1Cl | 5.4 |
| COc1ccc(/C=C2\CC(C(C)C)C/C(=C\c3ccc(OC)c(OC)c3Cl)C2=O)c(Cl)c1OC (centres undefined) | 15.3 |

1. COc1ccc(/C=C2\CCc3ccc([N+](=O)[O-])cc3C2=O)c(Cl)c1OC
2. COc1ccc(/C=C2\CCc3ccc([N+](=O)[O-])cc3\C2=N\O)c(Cl)c1OC
## Input For 1 and 2 , which recorded IC50 is lower? // output: label of the selected item
## Output 2
(2: 0.08 µM, 1: 1.8 µM)
